Measured values drawn from the supplement of paper PMC7125110 for this set.

B1: glmS ribozyme (parent)
chain: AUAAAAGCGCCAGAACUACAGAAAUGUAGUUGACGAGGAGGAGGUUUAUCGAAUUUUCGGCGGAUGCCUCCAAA

- Variants of: B1
- experimental-details: self-cleavage kobs at 640 uM GlcN6P; higher = faster cleavage; RNA array
- reported-conditions: with glucosamine-6-phosphate
This sample holds only a part of the variants without activity.
Catalogue of variants with associated self-cleavage kobs at 640 uM GlcN6P

Solved entries:
A14U G32A	0.00156 s⁻¹
U31G U56A	0.000903 s⁻¹
G37C G40U U46G G63U	< 1e-05 s⁻¹
A42U U57G	< 1e-05 s⁻¹
A36C G38C G43U U54G U56C	< 1e-05 s⁻¹

Task: Please give the measured self-cleavage kobs at 640 uM GlcN6P for this variant: A12C G63A
Result: < 1e-05 s⁻¹

Task: Please give the measured self-cleavage kobs at 640 uM GlcN6P for this variant: U55C G66C
Result: 0.000336 s⁻¹

Task: Please give the measured self-cleavage kobs at 640 uM GlcN6P for this variant: G40U A64G
Result: 8.19e-05 s⁻¹

Task: Please give the measured self-cleavage kobs at 640 uM GlcN6P for this variant: A6G G32C
Result: < 1e-05 s⁻¹

Task: Please give the measured self-cleavage kobs at 640 uM GlcN6P for this variant: G13C G35U A52U
Result: < 1e-05 s⁻¹

Task: Please give the measured self-cleavage kobs at 640 uM GlcN6P for this variant: G9C G29U U69A
Result: < 1e-05 s⁻¹
